- ASSAYED_TARGET: full-length proMMP9(1-707) (SEQ ID NO:1) (Homo sapiens, UniProt P14780, R574P)
- Construct: made in house; host or cells: HEK293 (proMMP9, secreted); E. coli (MMP3)
- Sequence (P14780 20-707 R574P): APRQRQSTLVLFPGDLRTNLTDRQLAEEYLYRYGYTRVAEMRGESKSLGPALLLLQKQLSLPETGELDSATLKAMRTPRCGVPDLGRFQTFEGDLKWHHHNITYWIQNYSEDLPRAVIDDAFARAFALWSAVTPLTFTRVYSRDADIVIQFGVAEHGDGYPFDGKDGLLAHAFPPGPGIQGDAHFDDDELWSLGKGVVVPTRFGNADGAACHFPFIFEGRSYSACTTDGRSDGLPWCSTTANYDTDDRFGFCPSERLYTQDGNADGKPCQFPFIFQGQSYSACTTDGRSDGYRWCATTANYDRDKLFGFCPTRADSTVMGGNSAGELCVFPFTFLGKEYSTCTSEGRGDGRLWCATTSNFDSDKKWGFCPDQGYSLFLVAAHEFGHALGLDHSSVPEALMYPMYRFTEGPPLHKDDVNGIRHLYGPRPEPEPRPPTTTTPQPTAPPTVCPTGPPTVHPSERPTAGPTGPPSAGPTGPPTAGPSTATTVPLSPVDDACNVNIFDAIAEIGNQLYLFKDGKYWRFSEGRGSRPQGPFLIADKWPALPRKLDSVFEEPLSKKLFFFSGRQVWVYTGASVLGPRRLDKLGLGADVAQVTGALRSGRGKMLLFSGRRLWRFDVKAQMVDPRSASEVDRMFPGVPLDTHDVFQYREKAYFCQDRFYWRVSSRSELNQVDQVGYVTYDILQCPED
- MEASUREMENT_DESCRIPTION: proMMP9/MMP3 P126 Activation Assay
- Format: biochemical
- DETAILS: 20 nM proMMP9, 20 nM MMP3, 80 min 37° C.
Structures can show the parent of a compound that is named as a salt.
// IC50 lookup, one value per entry
EXPERIMENTAL_READOUT: IC50 (nM)

INSERT INTO measurements (molecule, lt_gt_eq, result_number) VALUES
  ('COc1ccncc1Nc1nc(-c2sc(N3CCN(C)CC3)nc2C)cs1', '=', 290),
  ('CCOc1ccc(C(N)=O)cc1Nc1nc(-c2sc(C)nc2C)cs1', '=', 160),
  ('Cc1nc(C)c(-c2nc(Nc3cc(C(N)=O)ccc3OC(C)C)sc2C)s1', '=', 1400),
  ('COc1ccc(S(C)(=O)=O)cc1Nc1nc(-c2sc(N)nc2C)cs1', '=', 1600),
  ('Cc1nc(CN2CCCC2)sc1-c1csc(Nc2cc(C(N)=O)ccc2OC(C)C)n1', '=', 700),
  ('Cc1nc(C)c(-c2csc(Nc3cc(S(N)(=O)=O)cc4c3OCC4)n2)s1', '=', 7300),
  ('COC(=O)c1ccc(OC)c(Nc2nc(-c3sc(N)nc3C)cs2)c1 [Example 86, TFA]', '=', 610),
  ('COc1ccc(-c2nccs2)cc1Nc1nc(-c2sc(C)nc2C)cs1', '=', 11000),
  ('COc1ccc(C(N)=O)cc1Nc1nc(-c2sc(C)nc2C)cs1', '=', 690),
  ('COc1c(F)cc(C(N)=O)cc1Nc1nc(-c2sc(C)nc2C)cs1', '=', 9000),
  ('CCOc1ccc(C(N)=O)cc1Nc1nc(-c2sc(C(=O)N3CCN(C)CC3)nc2C)cs1', '=', 880),
  ('CC(=O)Nc1nc(C)c(-c2csc(Nc3cc(C(N)=O)ccc3Cl)n2)s1', '>', 20000),
  ('COc1ccc(C(=O)NCc2ccccc2)cc1Nc1nc(-c2sc(N)nc2C)cs1', '=', 12000),
  ('CCCOc1ccc(C(N)=O)cc1Nc1nc(-c2sc(C)nc2C)cs1', '=', 6100),
  ('Cc1nc(-c2cnccn2)sc1-c1csc(Nc2cc(C(N)=O)ccc2OC(C)C)n1', '=', 780),
  ('Cc1nc(C)c(-c2nc(Nc3cc(S(N)(=O)=O)ccc3OC(C)C)sc2C)s1', '=', 4700),
  ('Cc1nc(C)c(-c2csc(Nc3cc(S(N)(=O)=O)ccc3OC(F)(F)F)n2)s1', '=', 1600),
  ('CC(=O)Nc1nc(C)c(-c2csc(Nc3cc(S(C)(=O)=O)ccc3OC(C)C)n2)s1', '=', 760),
  ('COc1ccc(C(N)=O)cc1Nc1nc(-c2cnc(N)s2)cs1', '=', 5200),
  ('Cc1nc(N)sc1-c1csc(Nc2cc(C(N)=O)ccc2OC(C)C)n1', '=', 160),
  ('CCOc1ccc(C(N)=O)cc1Nc1nc(-c2sc(C(=O)N(C)CCN(C)C)nc2C)cs1', '=', 440),
  ('Cc1nc(C)c(-c2csc(Nc3cc(C(N)=O)ccc3OCC(F)(F)F)n2)s1', '=', 1300),
  ('Cc1nc(CN2CCCN(C)CC2)sc1-c1csc(Nc2cc(C(N)=O)ccc2OC(C)C)n1', '=', 770),
  ('Cc1nc(C)c(-c2csc(Nc3cc(C(N)=O)ccc3CC(C)C)n2)s1', '=', 800),
  ('COc1ccc(C#N)cc1Nc1nc(-c2sc(N)nc2C)cs1', '=', 900),
  ('CCOc1ccc(C(N)=O)cc1Nc1nc(-c2sc(NC(C)=O)nc2C)cs1', '=', 100),
  ('CCOc1ccc(C(N)=O)cc1Nc1nc(-c2sc(C(=O)N3CCN(C(C)C)CC3)nc2C)cs1', '=', 1100),
  ('COc1ccc(C(N)=O)cc1Nc1nc(-c2sc(N)nc2C)cs1', '=', 850),
  ('COc1ccc(NC(C)=O)cc1Nc1nc(-c2sc(N)nc2C)cs1', '=', 9800),
  ('Cc1nc(C(=O)N2CCCN(C)CC2)sc1-c1csc(Nc2cc(C(N)=O)ccc2OC(C)C)n1', '=', 130),
  ('CCOc1ccc(C(N)=O)cc1Nc1nc(-c2sc(C(=O)N3CCCN(CC)CC3)nc2C)cs1', '=', 480),
  ('COc1ccc(S(N)(=O)=O)cc1Nc1nc(-c2sc(NC(C)=O)nc2C)cs1', '=', 1900),
  ('COc1ccc(S(C)(=O)=O)cc1Nc1nc(-c2sc(NC(C)=O)nc2C)cs1', '=', 2500),
  ('Cc1nc(N)sc1-c1csc(Nc2cc(C(=O)O)ccc2OC(C)C)n1', '=', 410),
  ('COc1ccc(S(N)(=O)=O)cc1Nc1nc(-c2sc(N)nc2C)cs1', '=', 1200);
